molecular target: BRD4 BD2 (Homo sapiens, UniProt O60885, Y97A); construct: BRD4 (1-477) (Y97A) and (Y390A); made in house; host or cells: E. coli (pET15b vector); assay: BRD4 BD2 TR-FRET competition assay; assay type: binding; conditions: single mutant tandem BRD4, read-out: pIC50 in the BRD4 BD2 assay (converted)
Measured endpoint: IC50

Some compounds with known IC50 results, for comparison:
{"Compound": "CCNC(=O)c1cc(C(=O)NC)c(=O)n(Cc2cccc3[nH]ccc23)c1 [Example 25]", "IC50": "≤ 100 nM"}
{"Compound": "CNC(=O)c1cc(C(=O)NCCCC(=O)OC)cn(Cc2ccccc2)c1=O [Example 9]", "IC50": "100 to 1000 nM"}
{"Compound": "CCNC(=O)c1cc(C(=O)NC)c(=O)n([C@H](C)c2ccccc2)c1 [Example 16]", "IC50": "100 to 1000 nM"}

Request the reported IC50 associated with CNC(=O)c1cc(C(=O)NCCC(F)(F)F)cn(Cc2ccccc2)c1=O [Example 7]
100 to 1000 nM

Request the reported IC50 associated with CCNC(=O)c1cc(C(=O)NC)c(=O)n(Cc2cccc(C)c2)c1 [Example 14]
100 to 1000 nM

---

Below, each entry is listed alongside its reported IC50.
target: BRD4 BD2 (Homo sapiens, UniProt O60885, Y97A); construct: BRD4 (1-477) (Y97A) and (Y390A); made in house; host or cells: E. coli (pET15b vector); experiment: BRD4 BD2 TR-FRET competition assay; type: binding; conditions: single mutant tandem BRD4, read-out: pIC50 in the BRD4 BD2 assay (converted)

Some compounds with known IC50 results, for comparison:
{"Input smiles": "CNC(=O)c1cc(C(=O)NCCCc2ncc[nH]2)cn(Cc2ccccc2)c1=O", "IC50": "≤ 100 nM"}
{"Input smiles": "CNC(=O)c1cc(C(=O)NCCc2cnc[nH]2)cn(Cc2ccccc2)c1=O", "IC50": "100 to 1000 nM"}
{"Input smiles": "CCNC(=O)c1cc(C(=O)NC)c(=O)n(Cc2cccc(OCCO)c2)c1", "IC50": "100 to 1000 nM"}
{"Input smiles": "CNC(=O)c1cc(C(=O)NC)c(=O)n(Cc2cccc(C#N)c2)c1", "IC50": "1000 to 100000 nM"}
{"Input smiles": "CNC(=O)CCNC(=O)c1cc(C(=O)NC)c(=O)n(Cc2ccccc2)c1", "IC50": "100 to 1000 nM"}

// below: IC50 requested for another compound
Request the reported IC50 associated with CNC(=O)c1cc(C(=O)NCCc2cn[nH]c2)cn(Cc2cccc(OCCO)c2)c1=O
100 to 1000 nM

---

Below, each entry is listed alongside its reported IC50.
molecular target: BRD4 BD2 (Homo sapiens, UniProt O60885, Y97A); construct: BRD4 (1-477) (Y97A) and (Y390A); made in house; host or cells: E. coli (pET15b vector); test: BRD4 BD2 TR-FRET competition assay; type: binding; conditions: single mutant tandem BRD4, read-out: pIC50 in the BRD4 BD2 assay (converted)

Some molecules with known IC50 results, for comparison:
{"Input smiles": "CNC(=O)c1cc(C(=O)NCCS(C)(=O)=O)cn(Cc2ccccc2)c1=O", "Value measured": "100 to 1000 nM"}
{"Input smiles": "CNC(=O)c1cc(C(=O)NCCCC(=O)O)cn(Cc2ccccc2)c1=O", "Value measured": "100 to 1000 nM"}
{"Input smiles": "CNC(=O)c1cc(C(=O)NCCc2ccncc2)cn(Cc2ccccc2)c1=O", "Value measured": "100 to 1000 nM"}
{"Input smiles": "CCNC(=O)c1cc(C(=O)NC)c(=O)n(Cc2cccc(C)c2F)c1", "Value measured": "100 to 1000 nM"}

// below: IC50 requested for another molecule
Request the reported IC50 associated with CNC(=O)c1cc(C(=O)NCCc2cn[nH]c2)cn(Cc2cccc(C)c2)c1=O
≤ 100 nM
